experiment: AUC in mouse at 200 mg/kg, po; type: ADME, organism-based; set-up: dose 200 mg/kg, route oral; settings: plasma
Measured quantity: AUC (µM·h)

{"columns": ["Smiles repr", "Result value"],
 "data": [
  ["Cc1ccc([C@H]2C[C@@H](C(F)F)n3ncc(C(=O)NCc4ccc(F)cc4)c3N2)nc1", 77.7],
  ["O=C(NCc1ccc(F)cc1)c1cnn2c1N[C@@H](c1ccc(OC3COC3)cc1)C[C@H]2C(F)(F)F", 71.3],
  ["Cc1ccc([C@H]2C[C@@H](C(F)(F)F)n3ncc(C(=O)NCc4ccc(F)cc4)c3N2)nc1", 91.9]
]}

---

test: Octanol-water partition coefficient, log P of the compound; type: physicochemical
Catalogue of logP readings, one per entry.

{"columns": ["Smiles repr", "logP"],
 "data": [
  ["Cc1ccc([C@H]2C[C@@H](C(F)(F)F)n3ncc(C(=O)NCc4ccc(F)cn4)c3N2)cc1", 4.9],
  ["Cc1ccc([C@H]2C[C@@H](C(F)(F)F)n3ncc(C(=O)NCc4ccc(F)cn4)c3N2)nc1", 3.2],
  ["Cc1ccc([C@H]2C[C@@H](C(F)(F)F)n3ncc(C(=O)NCc4ccc(F)cc4)c3N2)nc1", 4.4],
  ["COCCOc1ccc([C@H]2C[C@@H](C(F)(F)F)n3ncc(C(=O)NCc4ccc(F)cc4)c3N2)cc1", 4.1],
  ["O=C(NCc1ccc(F)cc1)c1cnn2c1N[C@@H](c1ccc(N3CCOCC3)cc1)C[C@H]2C(F)(F)F", 4.8],
  ["COCCOc1ccc([C@H]2C[C@@H](C(F)(F)F)n3ncc(C(=O)NCc4ccc(F)cn4)c3N2)cc1", 3.2],
  ["Cc1ccc([C@H]2C[C@@H](C(F)(F)F)n3ncc(C(=O)NCc4ccc(F)cc4)c3N2)cc1", 6.3],
  ["Cc1ccc([C@H]2C[C@@H](C(F)F)n3ncc(C(=O)NCc4ccc(F)cc4)c3N2)nc1", 4.6],
  ["COc1ccc(CNC(=O)c2cnn3c2N[C@@H](c2ccc(C)cc2)C[C@H]3C(F)(F)F)cn1", 5.1],
  ["Cc1ccc([C@H]2C[C@@H](C(F)(F)F)n3ncc(C(=O)NCc4ccc(F)cc4)c3N2)o1", 5.5],
  ["O=C(NCc1ccc(F)cc1)c1cnn2c1N[C@@H](c1ccc(OC3COC3)cc1)C[C@H]2C(F)(F)F", 5.1]
]}

---

assay: Plasma protein binding in mouse; assay type: ADME, cell-free; conditions: read-out: PPB (converted)

{"columns": ["Smiles repr", "fraction unbound"],
 "data": [
  ["Cc1ccc([C@H]2C[C@@H](C(F)F)n3ncc(C(=O)NCc4ccc(F)cc4)c3N2)nc1", 0.052],
  ["COCCOc1ccc([C@H]2C[C@@H](C(F)(F)F)n3ncc(C(=O)NCc4ccc(F)cn4)c3N2)cc1", 0.108],
  ["COCCOc1ccc([C@H]2C[C@@H](C(F)(F)F)n3ncc(C(=O)NCc4ccc(F)cc4)c3N2)cc1", 0.015]
]}

---

assay: Aqueous solubility of the compound at pH 6.8; assay type: physicochemical
Measured quantity: solubility

{"columns": ["Smiles repr", "Measured quantity", "Result value"],
 "data": [
  ["Cc1ccc([C@H]2C[C@@H](C(F)(F)F)n3ncc(C(=O)NCc4ccc(F)cn4)c3N2)cc1", "solubility", "< 4 µM"],
  ["COCCOc1ccc([C@H]2C[C@@H](C(F)(F)F)n3ncc(C(=O)NCc4ccc(F)cc4)c3N2)cc1", "solubility", "6 µM"],
  ["Cc1ccc([C@H]2C[C@@H](C(F)(F)F)n3ncc(C(=O)NCc4ccc(F)cc4)c3N2)o1", "solubility", "< 4 µM"]
]}

---

assay: Aqueous solubility of the compound at pH 6.8; assay type: physicochemical

{"columns": ["Smiles repr", "Comparison operator", "solubility, µM"],
 "data": [
  ["Cc1ccc([C@H]2C[C@@H](C(F)(F)F)n3ncc(C(=O)NCc4ccc(F)cc4)c3N2)nc1", "=", 9],
  ["COc1ccc(CNC(=O)c2cnn3c2N[C@@H](c2ccc(C)cc2)C[C@H]3C(F)(F)F)cn1", "<", 4],
  ["Cc1ccc([C@H]2C[C@@H](C(F)(F)F)n3ncc(C(=O)NCc4ccc(F)cc4)c3N2)cc1", "<", 4],
  ["Cc1ccc([C@H]2C[C@@H](C(F)(F)F)n3ncc(C(=O)NCc4ccc(F)cn4)c3N2)nc1", "=", 347],
  ["O=C(NCc1ccc(F)cc1)c1cnn2c1N[C@@H](c1ccc(N3CCOCC3)cc1)C[C@H]2C(F)(F)F", "<", 4],
  ["O=C(NCc1ccc(F)cc1)c1cnn2c1N[C@@H](c1ccc(OC3COC3)cc1)C[C@H]2C(F)(F)F", "=", 9],
  ["COCCOc1ccc([C@H]2C[C@@H](C(F)(F)F)n3ncc(C(=O)NCc4ccc(F)cn4)c3N2)cc1", "=", 20],
  ["Cc1ccc([C@H]2C[C@@H](C(F)F)n3ncc(C(=O)NCc4ccc(F)cc4)c3N2)nc1", "=", 212]
]}

---

test: Volume of distribution at steady state in mouse at 5 mg/kg, iv; format: ADME, organism-based; design: dose 5 mg/kg, route intravenous; settings: in vivo, read-out: Vdss

{"columns": ["Smiles repr", "Vd (L/kg)"],
 "data": [
  ["Cc1ccc([C@H]2C[C@@H](C(F)F)n3ncc(C(=O)NCc4ccc(F)cc4)c3N2)nc1", 2.6],
  ["Cc1ccc([C@H]2C[C@@H](C(F)(F)F)n3ncc(C(=O)NCc4ccc(F)cc4)c3N2)nc1", 3.4],
  ["O=C(NCc1ccc(F)cc1)c1cnn2c1N[C@@H](c1ccc(OC3COC3)cc1)C[C@H]2C(F)(F)F", 2.5],
  ["Cc1ccc([C@H]2C[C@@H](C(F)(F)F)n3ncc(C(=O)NCc4ccc(F)cc4)c3N2)cc1", 6.3]
]}

---

test: Oral bioavailability in mouse at 25 mg/kg; assay type: ADME, organism-based; conditions: in vivo
Measured quantity: bioavailability

{"columns": ["Smiles repr", "Result value"],
 "data": [
  ["Cc1ccc([C@H]2C[C@@H](C(F)F)n3ncc(C(=O)NCc4ccc(F)cc4)c3N2)nc1", "53%"],
  ["Cc1ccc([C@H]2C[C@@H](C(F)(F)F)n3ncc(C(=O)NCc4ccc(F)cc4)c3N2)nc1", "100%"],
  ["Cc1ccc([C@H]2C[C@@H](C(F)(F)F)n3ncc(C(=O)NCc4ccc(F)cc4)c3N2)cc1", "65%"],
  ["O=C(NCc1ccc(F)cc1)c1cnn2c1N[C@@H](c1ccc(OC3COC3)cc1)C[C@H]2C(F)(F)F", "52%"]
]}

---

test: Cmax in mouse at 200 mg/kg, po; assay type: ADME, organism-based; set-up: dose 200 mg/kg, route oral; details: in vivo
Measured quantity: Cmax (µM)

{"columns": ["Smiles repr", "Measured quantity", "Result value"],
 "data": [
  ["Cc1ccc([C@H]2C[C@@H](C(F)(F)F)n3ncc(C(=O)NCc4ccc(F)cc4)c3N2)nc1", "Cmax", 11.8],
  ["O=C(NCc1ccc(F)cc1)c1cnn2c1N[C@@H](c1ccc(OC3COC3)cc1)C[C@H]2C(F)(F)F", "Cmax", 7.3],
  ["Cc1ccc([C@H]2C[C@@H](C(F)F)n3ncc(C(=O)NCc4ccc(F)cc4)c3N2)nc1", "Cmax", 15.2]
]}

---

assay: Elimination half life in mouse at 5 mg/kg, iv; assay type: ADME, organism-based; set-up: dose 5 mg/kg, route intravenous; conditions: in vivo, read-out: beta t1/2 (converted)
Measured quantity: half-life (h)

{"columns": ["Smiles repr", "Result value"],
 "data": [
  ["Cc1ccc([C@H]2C[C@@H](C(F)(F)F)n3ncc(C(=O)NCc4ccc(F)cc4)c3N2)nc1", 1.3],
  ["Cc1ccc([C@H]2C[C@@H](C(F)(F)F)n3ncc(C(=O)NCc4ccc(F)cc4)c3N2)cc1", 4.2],
  ["Cc1ccc([C@H]2C[C@@H](C(F)F)n3ncc(C(=O)NCc4ccc(F)cc4)c3N2)nc1", 1.8],
  ["O=C(NCc1ccc(F)cc1)c1cnn2c1N[C@@H](c1ccc(OC3COC3)cc1)C[C@H]2C(F)(F)F", 4.1]
]}

---

target: UniProtKB P08684; experiment: Inhibition of CYP3A4 in human liver microsomes using midazolam as substrate by LC-MS/MS analysis; type: ADME, Microsome
Sequence (P08684 whole entry): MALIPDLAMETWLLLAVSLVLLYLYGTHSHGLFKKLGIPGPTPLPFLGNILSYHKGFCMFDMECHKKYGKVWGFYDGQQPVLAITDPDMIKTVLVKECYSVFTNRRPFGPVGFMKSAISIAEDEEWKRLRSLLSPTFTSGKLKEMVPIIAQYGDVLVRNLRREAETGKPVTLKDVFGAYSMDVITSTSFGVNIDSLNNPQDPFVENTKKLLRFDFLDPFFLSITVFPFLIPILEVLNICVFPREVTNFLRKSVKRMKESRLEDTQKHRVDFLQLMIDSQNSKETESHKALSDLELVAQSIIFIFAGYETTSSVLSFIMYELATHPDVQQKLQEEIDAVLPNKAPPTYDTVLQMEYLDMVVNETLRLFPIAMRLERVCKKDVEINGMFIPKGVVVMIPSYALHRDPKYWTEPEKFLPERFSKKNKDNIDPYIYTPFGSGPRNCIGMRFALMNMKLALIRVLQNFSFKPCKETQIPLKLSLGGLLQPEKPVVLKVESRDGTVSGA
Measured quantity: inhibition (INH)

{"columns": ["Smiles repr", "Result value"],
 "data": [
  ["Cc1ccc([C@H]2C[C@@H](C(F)F)n3ncc(C(=O)NCc4ccc(F)cc4)c3N2)nc1", "Not Active"],
  ["Cc1ccc([C@H]2C[C@@H](C(F)(F)F)n3ncc(C(=O)NCc4ccc(F)cc4)c3N2)nc1", "Not Active"],
  ["O=C(NCc1ccc(F)cc1)c1cnn2c1N[C@@H](c1ccc(OC3COC3)cc1)C[C@H]2C(F)(F)F", "Not Active"],
  ["Cc1ccc([C@H]2C[C@@H](C(F)(F)F)n3ncc(C(=O)NCc4ccc(F)cc4)c3N2)cc1", "Not Active"]
]}

Values from ChEMBL document CHEMBL2384956
